Where do these numbers come from? They come from patent US20250250357A1.

target: T1, human MSLN-R3 on HEK293T-hMSLN-R3 recombinant cells (human, UniProt Q13421 487-606); assay: FACS, HEK293T-hMSLN-R3 cells
T1 construct: the C-terminal limit is uncertain; also called human MSLN-R3 membrane protein
T1 sequence (Q13421 495-614): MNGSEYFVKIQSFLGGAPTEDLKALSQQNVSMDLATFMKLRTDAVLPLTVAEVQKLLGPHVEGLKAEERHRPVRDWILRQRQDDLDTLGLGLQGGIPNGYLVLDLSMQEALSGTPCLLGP
readout.name: pEC50
The meaning of pEC50 here: minus log10 of the concentration in molar units.

binder | pEC50
F7.33.24-H3 (scFv, not shown: small tags and cut ends, also called S009-F7.33.24 humanized antibody VH1 + VL3) scFv: EVQLVQSGAEVKKPGASVKVSCKASGYTFTSYWMHWVRQAPGQRLEWMGNVNPSNGGSNYNEKFKNRVTITVDKSASTAYMELSSLRSEDTAVYYCAPHYIGSRPGFAYWGQGTLVTVSSGGGGSGGGGSGGGGSDIVMTQTPLSLSVTPGQPASISCKASQNVGTNIAWYQQKPGQSPQALIYSASYRYSGVPDRFSGSGSGTDFTLKISRVEAEDVGVYYCQQYNSYPLTFGGGTKVEIK | 8.54
F7.33.24-H7 (scFv, not shown: small tags and cut ends, also called S009-F7.33.24 humanized antibody VH2 + VL1) scFv: EVQLVQSGAEVKKPGASVKVSCKASGYTFTSYWMHWVRQAPGQGLEWMGNVNPSNGGSNYNEKFKNRVTITVDKSASTAYMELSSLRSEDTAVYYCAPHYIGSRPGFAYWGQGTLVTVSSGGGGSGGGGSGGGGSDIVMTQSPDSLAVSLGERATINCKASQNVGTNIAWYQQKPGQSPKALIYSASYRYSGVPDRFSGSGSGTDFTLTISSLQAEDVAVYYCQQYNSYPLTFGGGTKVEIK | 8.79
F7.33.24-H6 (scFv, not shown: small tags and cut ends, also called S009-F7.33.24 humanized antibody VH1a + VL3) scFv: EVQLVQSGAEVKKPGASVKVSCKASGYTFTSYWMHWVRQAPGQRLEWMGNVNPSSGGSNYNEKFKNRVTITVDKSASTAYMELSSLRSEDTAVYYCAPHYIGSRPGFAYWGQGTLVTVSSGGGGSGGGGSGGGGSDIVMTQTPLSLSVTPGQPASISCKASQNVGTNIAWYQQKPGQSPQALIYSASYRYSGVPDRFSGSGSGTDFTLKISRVEAEDVGVYYCQQYNSYPLTFGGGTKVEIK | 9.00

Ask | Answer with the recorded pEC50 for the binder listed here: F7.33.24-H4 (scFv, not shown: small tags and cut ends, also called S009-F7.33.24 humanized antibody VH1a + VL1) scFv: EVQLVQSGAEVKKPGASVKVSCKASGYTFTSYWMHWVRQAPGQRLEWMGNVNPSSGGSNYNEKFKNRVTITVDKSASTAYMELSSLRSEDTAVYYCAPHYIGSRPGFAYWGQGTLVTVSSGGGGSGGGGSGGGGSDIVMTQSPDSLAVSLGERATINCKASQNVGTNIAWYQQKPGQSPKALIYSASYRYSGVPDRFSGSGSGTDFTLTISSLQAEDVAVYYCQQYNSYPLTFGGGTKVEIK
Reply | 8.67
